molecular target: PDGFRA (PDGFR alpha) (Homo sapiens); construct: purchased Invitrogen; test: In vitro kinase assay (Z'-LYTE, Invitrogen); type: biochemical; settings: compound at 100 nM, ATP Km apparent, read-out: % of inhibition of the kinase compared to the control
Sequence (P16234 24-1089): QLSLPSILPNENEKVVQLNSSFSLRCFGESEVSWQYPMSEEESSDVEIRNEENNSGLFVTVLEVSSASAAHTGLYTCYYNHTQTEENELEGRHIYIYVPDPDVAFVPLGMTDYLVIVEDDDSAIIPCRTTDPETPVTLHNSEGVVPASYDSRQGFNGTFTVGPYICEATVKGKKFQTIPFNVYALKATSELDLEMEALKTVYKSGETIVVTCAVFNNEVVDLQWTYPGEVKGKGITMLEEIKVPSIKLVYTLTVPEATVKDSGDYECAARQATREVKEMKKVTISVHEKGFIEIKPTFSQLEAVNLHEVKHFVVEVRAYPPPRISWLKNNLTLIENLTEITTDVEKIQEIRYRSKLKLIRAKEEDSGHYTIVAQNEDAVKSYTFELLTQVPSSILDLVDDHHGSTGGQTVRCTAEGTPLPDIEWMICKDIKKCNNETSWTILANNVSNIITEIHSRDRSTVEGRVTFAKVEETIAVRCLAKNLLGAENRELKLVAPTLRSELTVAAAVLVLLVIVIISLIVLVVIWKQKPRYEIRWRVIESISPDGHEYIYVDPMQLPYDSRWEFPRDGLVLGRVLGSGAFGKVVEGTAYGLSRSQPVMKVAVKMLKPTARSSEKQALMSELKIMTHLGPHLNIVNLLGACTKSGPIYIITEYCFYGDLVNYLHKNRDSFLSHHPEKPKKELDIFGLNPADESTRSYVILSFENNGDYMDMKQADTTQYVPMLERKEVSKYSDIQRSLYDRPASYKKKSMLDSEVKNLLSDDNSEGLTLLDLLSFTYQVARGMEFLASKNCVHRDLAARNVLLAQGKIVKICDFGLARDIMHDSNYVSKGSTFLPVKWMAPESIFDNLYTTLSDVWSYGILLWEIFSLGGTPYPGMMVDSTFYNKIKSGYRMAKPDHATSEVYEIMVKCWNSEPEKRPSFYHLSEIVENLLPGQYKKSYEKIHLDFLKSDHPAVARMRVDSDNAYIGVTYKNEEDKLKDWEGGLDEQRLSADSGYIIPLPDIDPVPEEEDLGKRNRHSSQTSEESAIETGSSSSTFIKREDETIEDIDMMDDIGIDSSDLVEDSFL
quantityMeasured: inhibition at 0.1 µM

Sample records with inhibition at 0.1 µM:
>>> experimentalresult("COC(=O)c1cc2cc(C=Cc3cc(NC(=O)c4ccc(CN5CCC(N(C)C)C5)c(C(F)(F)F)c4)ccc3C)cnc2[nH]1 (centres unmarked)")
"≥ 50%"
>>> experimentalresult("CC(=O)c1cc2cc(CCc3cc(NS(=O)(=O)c4cccc(C(F)(F)F)c4)ccc3C)cnc2[nH]1")
"< 50%"
>>> experimentalresult("CC(=O)c1cc2cc(CCc3cc(NC(=O)Nc4cccc(C(F)(F)F)c4)ccc3C)cnc2[nH]1")
"≥ 50%"
>>> experimentalresult("COC(=O)c1cc2cc(CCc3cccc(NC(=O)c4ccc5[nH]nnc5c4)c3)cnc2[nH]1")
"< 50%"
>>> experimentalresult("COC(=O)c1cc2cc(CSc3cccc(NC(=O)c4cccc(C(F)(F)F)c4)c3)cnc2[nH]1")
"≥ 50%"

Note to self: inhibition at 0.1 µM recorded for COC(=O)c1cc2cc(CCc3cc(NC(=O)c4ccc(CN5CCC(N(C)C)C5)c(C(F)(F)F)c4)ccc3C)cnc2[nH]1 (centres unmarked) was ≥ 50%

Notebook: COC(=O)c1cc2cc(CNC(=O)c3cc(NC(=O)c4ccc(CN5CCN(C)CC5)cc4)ccc3C)cnc2[nH]1 , inhibition at 0.1 µM read as < 50%

Sure, the documented inhibition at 0.1 µM for COC(=O)c1cc2cc(C=Cc3cc(NC(=O)c4ccc(CN5CCN(C)CC5)cc4)ccc3C)cnc2[nH]1 is ≥ 50%

Consider COC(=O)c1cc2cc(CCc3cc(NC(=O)c4ccccc4OC)ccc3Cl)cnc2[nH]1 . Its measured inhibition at 0.1 µM is ≥ 50%

Recorded inhibition at 0.1 µM (compound COC(=O)c1cc2cc(COc3cc(NC(=O)c4ccc(CN5CCN(C)CC5)c(C(F)(F)F)c4)ccc3C)cnc2[nH]1 ): ≥ 50%

For reference, reported inhibition at 0.1 µM for COC(=O)c1cc2cc(C=Nc3cc(NC(=O)c4ccc(CN5CCN(C)CC5)c(C(F)(F)F)c4)ccc3C)cnc2[nH]1 stands at ≥ 50%

###

biological target: EGFR (ErbB1) (Homo sapiens, UniProt P00533); construct: purchased Invitrogen; experiment: In vitro kinase assay (Z'-LYTE, Invitrogen); type: biochemical; conditions: compound at 100 nM, ATP Km apparent, read-out: % of inhibition of the kinase compared to the control
Sequence (P00533 25-1210): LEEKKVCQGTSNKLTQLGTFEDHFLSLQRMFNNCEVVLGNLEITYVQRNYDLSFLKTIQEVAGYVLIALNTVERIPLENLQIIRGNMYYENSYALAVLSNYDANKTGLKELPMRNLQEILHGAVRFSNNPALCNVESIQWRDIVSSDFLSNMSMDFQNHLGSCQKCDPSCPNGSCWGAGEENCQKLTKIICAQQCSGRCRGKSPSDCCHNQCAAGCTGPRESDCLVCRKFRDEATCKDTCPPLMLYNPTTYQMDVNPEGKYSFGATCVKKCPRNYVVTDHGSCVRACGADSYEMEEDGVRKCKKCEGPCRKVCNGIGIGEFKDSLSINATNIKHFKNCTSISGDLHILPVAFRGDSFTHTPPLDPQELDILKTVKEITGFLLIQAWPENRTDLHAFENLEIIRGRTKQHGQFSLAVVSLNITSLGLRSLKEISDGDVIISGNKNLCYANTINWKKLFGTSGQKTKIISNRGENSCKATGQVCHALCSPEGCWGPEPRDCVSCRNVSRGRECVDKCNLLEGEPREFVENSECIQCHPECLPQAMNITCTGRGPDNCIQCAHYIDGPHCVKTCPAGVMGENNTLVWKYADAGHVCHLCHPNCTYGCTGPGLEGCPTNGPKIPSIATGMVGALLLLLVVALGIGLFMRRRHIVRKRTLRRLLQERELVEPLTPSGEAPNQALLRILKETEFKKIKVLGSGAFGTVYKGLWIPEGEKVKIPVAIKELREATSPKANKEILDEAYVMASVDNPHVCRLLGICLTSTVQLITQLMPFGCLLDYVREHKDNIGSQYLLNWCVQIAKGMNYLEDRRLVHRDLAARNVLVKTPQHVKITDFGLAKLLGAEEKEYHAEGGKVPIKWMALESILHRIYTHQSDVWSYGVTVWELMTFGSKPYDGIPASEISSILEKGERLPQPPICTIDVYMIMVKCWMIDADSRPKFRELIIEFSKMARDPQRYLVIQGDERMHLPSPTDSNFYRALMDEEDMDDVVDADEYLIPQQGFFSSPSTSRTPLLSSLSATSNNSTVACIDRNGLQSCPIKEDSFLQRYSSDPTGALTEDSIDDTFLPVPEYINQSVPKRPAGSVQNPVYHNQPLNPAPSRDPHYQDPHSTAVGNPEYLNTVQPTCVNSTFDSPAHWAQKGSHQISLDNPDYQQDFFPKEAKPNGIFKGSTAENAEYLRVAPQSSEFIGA
quantityMeasured: inhibition at 0.1 µM

>>> experimentalresult("COC(=O)c1cc2cc(CCc3cc(NC(=O)C4CCC(C(F)(F)F)CC4)ccc3C)cnc2[nH]1 (stereo not shown)")
"≥ 50%"

// sample COC(=O)c1cc2cc(C=Nc3cc(NC(=O)c4ccc(CN5CCN(C)CC5)c(C(F)(F)F)c4)ccc3C)cnc2[nH]1 , its inhibition at 0.1 µM was ≥ 50%

Given item Cc1ccc(NC(=O)c2ccc(CN3CCN(C)CC3)c(C(F)(F)F)c2)cc1CCc1cnc2[nH]c(C(=O)O)cc2c1 , the value recorded as its inhibition at 0.1 µM is ≥ 50%

Given item COC(=O)c1cc2cc(CSc3cccc(NC(=O)c4cccc(C(F)(F)F)c4)c3)cnc2[nH]1 , the value recorded as its inhibition at 0.1 µM is < 50%

# molecule CC(=O)c1cc2cc(CCc3cc(NC(=O)Nc4cccc(C(F)(F)F)c4)ccc3C)cnc2[nH]1 ; its inhibition at 0.1 µM = < 50%

###

List of EC50 values.
tested on: HepG2 cell line; test: In vitro cell proliferation assay (MTT); type: cell-based; settings: Homo sapiens, HepG2, 72 hr, EC50 ≧ 1 μM, read-out: EC50, anti-proliferative activity

>>> experimentalresult("COC(=O)c1cc2cc(C=Cc3cc(NC(=O)c4ccc(CN5CCC(N(C)C)C5)c(C(F)(F)F)c4)ccc3C)cnc2[nH]1 (stereo not shown)")
"≥ 1000 nM"
>>> experimentalresult("COC(=O)c1cc2cc(NCCc3cccc(NC(=O)c4ccc(CN5CCN(C)CC5)c(C(F)(F)F)c4)c3)cnc2[nH]1")
"≥ 1000 nM"
>>> experimentalresult("COC(=O)c1cc2cc(CSc3cccc(NC(=O)c4cccc(C(F)(F)F)c4)c3)cnc2[nH]1")
"≥ 1000 nM"
>>> experimentalresult("CNC(=O)c1cc(Oc2ccc(NC(=O)Nc3ccc(Cl)c(C(F)(F)F)c3)cc2)ccn1 [Sorafenib, reference compound]")
"1000 to 3000 nM"
>>> experimentalresult("COC(=O)c1cc2cc(CNc3cc(NC(=O)c4ccc(CN5CCN(C)CC5)cc4)ccc3C)cnc2[nH]1")
"≥ 1000 nM"
>>> experimentalresult("COC(=O)c1cc2cc(CCc3ccc(C)c(NC(=O)c4cc(-n5cnc(C)c5)cc(C(F)(F)F)c4)c3)cnc2[nH]1")
"≥ 1000 nM"

Lab note: next compound to report on.
Measured EC50, COC(=O)c1cc2cc(COc3cc(NC(=O)c4ccc(CN5CCC(N(C)C)C5)c(C(F)(F)F)c4)ccc3C)cnc2[nH]1 (stereo not shown) : ≥ 1000 nM

###

molecular target: FGFR2 (Homo sapiens); construct: purchased Invitrogen; test: In vitro kinase assay (Z'-LYTE, Invitrogen); format: biochemical; conditions: compound at 100 nM, ATP Km apparent, read-out: % of inhibition of the kinase compared to the control
Sequence (P21802 22-821): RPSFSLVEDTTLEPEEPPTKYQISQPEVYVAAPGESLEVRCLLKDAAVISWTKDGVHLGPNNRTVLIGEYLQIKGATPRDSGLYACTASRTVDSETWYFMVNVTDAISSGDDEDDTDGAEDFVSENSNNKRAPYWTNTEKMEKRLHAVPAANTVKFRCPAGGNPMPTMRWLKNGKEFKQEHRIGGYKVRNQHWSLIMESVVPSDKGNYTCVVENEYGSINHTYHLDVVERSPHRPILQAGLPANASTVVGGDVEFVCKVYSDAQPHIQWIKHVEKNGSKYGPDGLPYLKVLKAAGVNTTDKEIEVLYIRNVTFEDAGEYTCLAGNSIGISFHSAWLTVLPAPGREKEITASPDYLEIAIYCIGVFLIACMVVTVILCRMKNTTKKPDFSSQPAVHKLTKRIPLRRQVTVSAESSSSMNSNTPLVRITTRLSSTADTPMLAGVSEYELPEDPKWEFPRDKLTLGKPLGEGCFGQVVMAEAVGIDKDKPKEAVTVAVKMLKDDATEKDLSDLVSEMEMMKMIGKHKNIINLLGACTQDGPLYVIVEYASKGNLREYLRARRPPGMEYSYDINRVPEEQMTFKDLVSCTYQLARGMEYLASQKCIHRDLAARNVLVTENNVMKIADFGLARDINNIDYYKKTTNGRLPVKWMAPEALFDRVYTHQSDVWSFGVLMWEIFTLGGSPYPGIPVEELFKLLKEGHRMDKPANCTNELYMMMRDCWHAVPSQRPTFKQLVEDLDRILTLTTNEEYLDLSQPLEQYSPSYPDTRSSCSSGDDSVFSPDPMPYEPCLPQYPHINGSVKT
quantityMeasured: inhibition at 0.1 µM

Reference set, count: 5
>>> experimentalresult("COC(=O)c1cc2cc(CNC(=O)c3cc(NC(=O)c4ccc(CN5CCN(C)CC5)c(C(F)(F)F)c4)ccc3C)cnc2[nH]1")
"< 50%"
>>> experimentalresult("COC(=O)c1cc2cc(CCc3cc(NC(=O)c4ccc(CN5CCC(N(C)C)C5)c(C(F)(F)F)c4)ccc3C)cnc2[nH]1 (centres unmarked)")
"≥ 50%"
>>> experimentalresult("COC(=O)c1cc2cc(CCc3cccc(NC(=O)c4ccc5[nH]ccc5c4)c3)cnc2[nH]1")
"< 50%"
>>> experimentalresult("COC(=O)c1cc2cc(CCc3ccc(C)c(NC(=O)c4cc(-n5cnc(C)c5)cc(C(F)(F)F)c4)c3)cnc2[nH]1")
"≥ 50%"
>>> experimentalresult("COC(=O)c1cc2cc(CNCc3cccc(NC(=O)c4ccc(CN5CCN(C)CC5)c(C(F)(F)F)c4)c3)cnc2[nH]1")
"< 50%"

Per the records, this molecule ( COC(=O)c1cc2cc(CNC(=O)c3cc(NC(=O)c4ccc(CN5CCC(N(C)C)C5)c(C(F)(F)F)c4)ccc3C)cnc2[nH]1 (centres unmarked) ) has inhibition at 0.1 µM equal to < 50%

Looking up COC(=O)c1cc2cc(NCCc3cccc(NC(=O)c4ccc(CN5CCN(C)CC5)c(C(F)(F)F)c4)c3)cnc2[nH]1 , I found its inhibition at 0.1 µM recorded as < 50%

According to the records, this molecule COC(=O)c1cc2cc(CCc3cc(NC(=O)c4cncc(C(F)(F)F)c4)ccc3Cl)cnc2[nH]1 displays inhibition at 0.1 µM of < 50%

Summary for this molecule, COC(=O)c1cc2cc(CCc3cc(NC(=O)c4ccc(CN5CCN(C)CC5)cc4)ccc3C)cnc2[nH]1 : inhibition at 0.1 µM is < 50%

Reported inhibition at 0.1 µM ( COC(=O)c1cc2cc(CNc3cc(NC(=O)c4ccc(CN5CCN(C)CC5)cc4)ccc3C)cnc2[nH]1 ) = < 50%

GET /value?item= COC(=O)c1cc2cc(CCc3cccc(CNC(=O)c4ccc(CN5CCN(C)CC5)c(C(F)(F)F)c4)c3)cnc2[nH]1 &field=inhibition at 0.1 µM returns < 50%

The molecule identified as Cc1ccc(NC(=O)c2ccc(CN3CCN(C)CC3)c(C(F)(F)F)c2)cc1CCc1cnc2[nH]c(C(=O)O)cc2c1 registered its inhibition at 0.1 µM at ≥ 50%

The reported inhibition at 0.1 µM of the molecule COC(=O)c1cc2cc(CCc3cccc(NC(=O)c4cc[nH]c4)c3)cnc2[nH]1 was < 50%

// recorded inhibition at 0.1 µM for CC(=O)c1cc2cc(CCc3cc(NC(=O)c4ccc(CN5CCN(C)CC5)cc4)ccc3C)cnc2[nH]1 : < 50%

molecule COC(=O)c1cc2cc(COc3cc(NC(=O)c4ccc(CN5CCN(C)CC5)cc4)ccc3C)cnc2[nH]1 , inhibition at 0.1 µM observed: < 50%

response.value for CC(=O)c1cc2cc(CCc3cc(NC(=O)c4ccc(CN5CCN(C)CC5)c(C(F)(F)F)c4)ccc3C)cnc2[nH]1 (field: inhibition at 0.1 µM) = ≥ 50%

###

molecular target: BRAF (Homo sapiens, UniProt P15056); construct: purchased Invitrogen; assay: In vitro kinase assay (Z'-LYTE, Invitrogen); format: biochemical; settings: compound at 100 nM, ATP Km apparent, read-out: % of inhibition of the kinase compared to the control
Sequence (P15056 whole entry): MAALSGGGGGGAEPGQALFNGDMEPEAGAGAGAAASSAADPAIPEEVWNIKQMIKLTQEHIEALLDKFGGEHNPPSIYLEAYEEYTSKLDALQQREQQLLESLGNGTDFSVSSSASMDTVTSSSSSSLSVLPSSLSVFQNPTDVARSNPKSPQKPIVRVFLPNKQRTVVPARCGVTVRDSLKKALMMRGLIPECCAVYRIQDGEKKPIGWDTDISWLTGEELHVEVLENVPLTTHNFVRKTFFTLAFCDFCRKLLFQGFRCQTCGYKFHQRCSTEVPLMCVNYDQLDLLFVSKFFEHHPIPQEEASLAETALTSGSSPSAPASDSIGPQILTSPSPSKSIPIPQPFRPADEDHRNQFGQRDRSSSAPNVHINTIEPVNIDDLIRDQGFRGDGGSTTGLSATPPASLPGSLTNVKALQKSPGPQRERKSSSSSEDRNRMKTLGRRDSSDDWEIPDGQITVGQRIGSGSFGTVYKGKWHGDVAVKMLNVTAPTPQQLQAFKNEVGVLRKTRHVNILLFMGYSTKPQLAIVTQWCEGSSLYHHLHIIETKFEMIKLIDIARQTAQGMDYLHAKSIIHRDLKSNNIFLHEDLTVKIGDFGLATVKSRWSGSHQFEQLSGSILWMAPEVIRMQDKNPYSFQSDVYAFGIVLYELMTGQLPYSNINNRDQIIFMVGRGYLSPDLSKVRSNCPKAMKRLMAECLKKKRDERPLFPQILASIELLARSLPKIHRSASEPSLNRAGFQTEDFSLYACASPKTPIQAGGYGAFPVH
As shown below, each of these molecules has a reported inhibition at 0.1 µM value.

Record excerpt, results attached:
>>> experimentalresult("COC(=O)c1cc2cc(CCc3cccc(NC(=O)c4cc[nH]c4)c3)cnc2[nH]1")
"< 50%"
>>> experimentalresult("COC(=O)c1cc2cc(CCc3cccc(NC(=O)c4cncc(C(F)(F)F)c4)c3)cnc2[nH]1")
"≥ 50%"
>>> experimentalresult("COC(=O)c1cc2cc(CCc3cc(NC(=O)c4ccccc4OC)ccc3Cl)cnc2[nH]1")
"< 50%"
>>> experimentalresult("COC(=O)c1cc2cc(CNCc3cccc(NC(=O)c4ccc(CN5CCN(C)CC5)c(C(F)(F)F)c4)c3)cnc2[nH]1")
"< 50%"
>>> experimentalresult("CC(=O)c1cc2cc(CCc3cc(NC(=O)Cc4cccc(C(F)(F)F)c4)ccc3C)cnc2[nH]1")
"≥ 50%"
>>> experimentalresult("COC(=O)c1cc2cc(CCc3cc(NC(=O)c4ccc(CN5CCC(N(C)C)C5)c(C(F)(F)F)c4)ccc3Cl)cnc2[nH]1 (centres unmarked)")
"< 50%"
>>> experimentalresult("CC(=O)c1cc2cc(CCc3cc(NC(=S)Nc4cccc(C(F)(F)F)c4)ccc3C)cnc2[nH]1")
"< 50%"

Kindly consider the entry below.
// inhibition at 0.1 µM value for COC(=O)c1cc2cc(CCc3cccc(NC(=O)c4ccc5[nH]nnc5c4)c3)cnc2[nH]1 : < 50%
